target-or-test-system: T1, EsCas13d, nuclease-dead (Eubacterium siraeum, UniProt B0MS50, R295A;H300A;R849A;H854A)
T1 sequence: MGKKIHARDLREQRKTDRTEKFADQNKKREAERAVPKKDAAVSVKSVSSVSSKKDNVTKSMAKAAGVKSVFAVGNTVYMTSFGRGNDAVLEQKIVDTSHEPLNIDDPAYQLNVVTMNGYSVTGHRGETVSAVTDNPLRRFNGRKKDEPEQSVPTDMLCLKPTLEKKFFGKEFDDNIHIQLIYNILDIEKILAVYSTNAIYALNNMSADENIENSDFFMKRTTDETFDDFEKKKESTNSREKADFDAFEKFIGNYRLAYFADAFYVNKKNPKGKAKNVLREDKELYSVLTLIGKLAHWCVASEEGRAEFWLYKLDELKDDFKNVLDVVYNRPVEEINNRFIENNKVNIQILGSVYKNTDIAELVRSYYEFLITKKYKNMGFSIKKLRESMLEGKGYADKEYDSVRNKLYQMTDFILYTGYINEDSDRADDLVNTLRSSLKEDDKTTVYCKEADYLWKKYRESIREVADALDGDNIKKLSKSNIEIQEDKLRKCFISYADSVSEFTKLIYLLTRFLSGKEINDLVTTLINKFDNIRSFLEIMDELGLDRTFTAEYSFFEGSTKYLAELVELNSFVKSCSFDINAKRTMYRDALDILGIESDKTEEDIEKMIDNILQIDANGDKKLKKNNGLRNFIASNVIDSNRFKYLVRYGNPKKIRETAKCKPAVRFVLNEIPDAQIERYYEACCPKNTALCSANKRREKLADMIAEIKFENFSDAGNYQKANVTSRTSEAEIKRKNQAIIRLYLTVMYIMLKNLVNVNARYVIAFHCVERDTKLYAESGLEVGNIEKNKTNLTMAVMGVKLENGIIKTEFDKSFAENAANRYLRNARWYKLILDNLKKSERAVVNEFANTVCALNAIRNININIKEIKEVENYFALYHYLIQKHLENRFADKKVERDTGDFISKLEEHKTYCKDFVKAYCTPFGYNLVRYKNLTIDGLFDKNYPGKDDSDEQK
protocol-description: crRNA (strand 1, pre-loaded); Mg2+; 40 mM Tris-HCl pH 7.5, 150 mM NaCl, 6 mM MgCl2, 1 mM DTT, 0.1% Tween-20, 0.2 mg/ml BSA; 25 C; 10 min per concentration, then washed
condition-summary: tags: His6-TwinStrep-SUMO cleaved; N-terminal SNAP kept (SNAP-Surface 488); label: 3' end held by stalled T7 RNA polymerase
reported-property: pKd
Entry type: numeric. Quantity: pKd, the -log10 of concentration in molar units.

INSERT INTO results (binder, reported_property, recorded_measurement) VALUES
  ('target 1 complement block 7-10 (mixed) RNA 1: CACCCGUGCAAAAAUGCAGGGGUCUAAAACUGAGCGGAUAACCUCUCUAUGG RNA 2: GGGAAUGGAUCCACAUCUACGAAUUCGUACCAUAGAGAGGUAUAGCGCUCACCGAGAUCGGAAGAGCACACGU', 'pKd', 7.93);

// next entry
Bench note: what pKd did target 3 insU 3' of 13,insU 3' of 4 (mixed) RNA 1: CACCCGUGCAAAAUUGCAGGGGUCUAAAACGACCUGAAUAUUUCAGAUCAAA RNA 2: GGGAAUGGAUCCACAUCUACGAAUUCGUUUUUGAUCUGAUAAUAUUCAGUGUCUGCAGAUCGGAAGAGCACACGU show?
7.31
